Measured pEC50 accompanies every entry in the list below.
System: NQO1 specific enzyme activity in BEAS-2B cells
METHOD SUMMARY: BEAS-2B NQO1 MTT assay
Assay type: cell-based
RUN CONDITIONS: Homo sapiens, BEAS-2B, 48 h, BEAS-2B cells, 48 hours with compound, MTT readout; read-out: EC50 of NQO1 specific activity induction
pEC50: −log10 of the molar value. Structures can show the parent of a compound that is named as a salt.

Entry CC[C@@H]1CN(Cc2cc(C(c3ccc4c(nnn4C)c3C)C(C)(C)C(=O)O)ccc2C)Cc2cc(F)ccc2O1 (some centres unmarked) [Example 32, formic acid salt] ; pEC50 = 8.00 to 9.00

Entry CCn1nnc2c(F)c([C@@H](CC(=O)O)c3ccc(C)c(CN4Cc5ccccc5OC(C)(C)C4)c3)ccc21 [Example 64] ; pEC50 = 7.00 to 8.00
